molecular target: T1, human MSLN-FL-his protein (human, UniProt Q13421 296-580); assay: ELISA, coated antigen; antibody 1 nM
T1 construct: also called hMSLN-FL-his; human MSLN full-length protein; not shown: His tag
T1 sequence (Q13421 other isoform, or with tags, fused parts or gaps): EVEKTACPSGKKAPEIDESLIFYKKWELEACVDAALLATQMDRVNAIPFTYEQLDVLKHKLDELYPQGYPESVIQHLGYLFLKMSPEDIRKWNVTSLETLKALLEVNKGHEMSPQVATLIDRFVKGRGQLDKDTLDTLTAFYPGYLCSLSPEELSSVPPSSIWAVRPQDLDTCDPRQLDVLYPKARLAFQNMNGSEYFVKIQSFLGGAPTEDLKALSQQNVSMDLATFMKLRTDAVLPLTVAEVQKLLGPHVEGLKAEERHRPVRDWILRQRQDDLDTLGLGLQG
measurement kind: OD450
Form: value (number only, do not type unit).

binder | endpoint value
S009-F1.59.1 human-murine chimeric antibody (antibody, human IgG1, kappa, V domains shown, Chimeric IgG1/kappa) VH: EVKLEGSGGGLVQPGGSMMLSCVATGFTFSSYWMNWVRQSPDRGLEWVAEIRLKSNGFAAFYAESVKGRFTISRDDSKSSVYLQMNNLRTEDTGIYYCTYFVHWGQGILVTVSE VL: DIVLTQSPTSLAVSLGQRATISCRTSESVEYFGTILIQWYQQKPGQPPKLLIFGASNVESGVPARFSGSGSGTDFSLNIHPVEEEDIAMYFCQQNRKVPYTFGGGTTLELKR | 2.31

Here is another binder to look at.
Requested field: OD450. Item: S009-F1.35.24 human-murine chimeric antibody (antibody, human IgG1, kappa, V domains shown, Chimeric IgG1/kappa) VH: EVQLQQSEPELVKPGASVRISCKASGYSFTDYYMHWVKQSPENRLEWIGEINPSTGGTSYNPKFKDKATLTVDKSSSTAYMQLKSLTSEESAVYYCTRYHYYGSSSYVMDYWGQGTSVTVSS VL: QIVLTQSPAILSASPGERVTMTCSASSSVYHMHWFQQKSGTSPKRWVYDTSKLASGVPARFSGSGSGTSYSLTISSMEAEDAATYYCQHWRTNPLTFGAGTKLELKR 2.22

# credit: patent US20250250357A1
